B1: Neutrophil cytosol factor 2, residues 456 to 514; numbered along this chain, P19878 (parent)
chain: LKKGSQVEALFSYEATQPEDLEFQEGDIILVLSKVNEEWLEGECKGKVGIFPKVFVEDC

Variants of: B1
assay.info: abundance fitness (aPCA) (normalised: wild type 0, dead -1); higher = more abundant; growth selection in yeast, the domain comes from the species named
condition.context: Homo sapiens
Binning rule for recorded abundance fitness: low class (below -0.5), middle class (-0.5 to below -0.1), high class (-0.1 or more)

{"mutant.name": "L32N", "class.label": "high class"}
{"mutant.name": "S33Q", "class.label": "middle class"}
{"mutant.name": "G26H", "class.label": "middle class"}
{"mutant.name": "K34S", "class.label": "middle class"}
{"mutant.name": "V54P", "class.label": "middle class"}

Exercise: // bin(item) where item = "E14Y"
Key: middle class

Exercise: Category of "L32A" :
Key: middle class

Exercise: For this variant, which bin applies? "V56I"
Key: low class

Exercise: Lab note: sort "V56K" into the matching abundance fitness band.
Key: low class

Exercise: Note: place this variant into its band. Item: "C59L"
Key: middle class
